target: BACE (Homo sapiens (Human), UniProt P56817); test: In vitro BACE cell-based assay (Aβ40 in conditioned medium, sandwich ELISA)
Sequence (P56817 46-501, species assumed): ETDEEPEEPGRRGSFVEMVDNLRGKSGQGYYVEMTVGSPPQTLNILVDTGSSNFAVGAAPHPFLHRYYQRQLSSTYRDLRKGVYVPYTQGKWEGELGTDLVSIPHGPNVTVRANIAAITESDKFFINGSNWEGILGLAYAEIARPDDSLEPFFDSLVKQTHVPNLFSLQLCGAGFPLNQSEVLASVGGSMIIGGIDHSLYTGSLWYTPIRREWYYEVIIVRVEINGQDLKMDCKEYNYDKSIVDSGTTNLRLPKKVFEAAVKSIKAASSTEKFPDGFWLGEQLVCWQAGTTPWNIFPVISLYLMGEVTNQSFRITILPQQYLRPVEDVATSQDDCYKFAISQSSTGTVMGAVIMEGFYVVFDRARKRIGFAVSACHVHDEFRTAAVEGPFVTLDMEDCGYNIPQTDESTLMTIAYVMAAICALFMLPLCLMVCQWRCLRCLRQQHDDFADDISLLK
Readout: IC50 (µM)
Give just the numeric value; µM need not be written.

>  <Compound>
NC1=N[C@@](CF)(c2cc(NC(=O)c3ccc(Br)cn3)ccc2Cl)[C@@H]2C[C@@H]2O1 [Example 275]

>  <Readout>
IC50

>  <Reading unit>
µM

>  <Val>
0.906

$$$$
>  <Compound>
Cc1cc(C(F)F)cnc1C(=O)Nc1ccc(F)c([C@@]2(C(F)F)N=C(N)O[C@@H]3C[C@@H]32)c1 [Example 186]

>  <Readout>
IC50

>  <Reading unit>
µM

>  <Val>
0.0345

$$$$
>  <Compound>
CC#CCOc1cnc(C(=O)Nc2cc(F)c(F)c([C@@]3(CF)N=C(N)O[C@@H]4C[C@@H]43)c2)cn1 [Example 35]

>  <Readout>
IC50

>  <Reading unit>
µM

>  <Val>
0.0006

$$$$

Find the recorded IC50 belonging to NC1=N[C@](CF)(c2nc(NC(=O)c3ccc(Cl)cn3)ccc2F)[C@H]2C[C@H]2O1 (stereo in doubt) [Example 105] and report it.
2.1

Try COc1cnc2c(Nc3ccc(Cl)c([C@@]4(CF)N=C(N)O[C@@H]5C[C@@H]54)c3)nccc2c1 [Example 360] next.
0.139
